- system: B2-AR (Homo sapiens, UniProt P07550)
- Construct: expressed in transfected cells; host or cells: CHO-K1
- Sequence (P07550 whole entry, species assumed): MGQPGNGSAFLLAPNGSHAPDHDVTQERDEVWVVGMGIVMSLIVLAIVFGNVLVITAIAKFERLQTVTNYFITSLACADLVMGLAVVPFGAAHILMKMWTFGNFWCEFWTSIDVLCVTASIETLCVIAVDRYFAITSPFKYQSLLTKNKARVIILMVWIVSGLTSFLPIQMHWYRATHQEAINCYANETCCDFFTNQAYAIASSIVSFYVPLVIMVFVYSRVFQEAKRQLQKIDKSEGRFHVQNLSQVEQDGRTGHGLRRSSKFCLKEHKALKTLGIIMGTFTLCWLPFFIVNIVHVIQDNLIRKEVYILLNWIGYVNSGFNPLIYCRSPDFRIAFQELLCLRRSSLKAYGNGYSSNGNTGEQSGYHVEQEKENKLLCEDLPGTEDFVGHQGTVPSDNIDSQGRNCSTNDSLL
- methodDescription: cAMP Gs dynamic HTRF assay, cells expressing beta-adrenergic receptor (CHO-K1), B2-AR
- Format: cell-based
- condition: CHO-K1, CHO-K1 cells, relative to full agonist isoproterenol; read-out: Emax (% iso) (%) [B2-AR]

[
  {
    "molecule": "CC(C)(NC[C@H](O)c1cc(F)cc2[nH]ncc12)C1CC1 [I-19]",
    "Emax": "> 90%"
  },
  {
    "molecule": "CCC(C)(C)NC[C@H](O)c1cccc2[nH]ncc12 [I-47]",
    "Emax": "> 90%"
  },
  {
    "molecule": "Cc1ncccc1[C@@H](O)CNC(C)(C)CO [I-176]",
    "Emax": "70 to 90%"
  },
  {
    "molecule": "Cc1nc(N)ccc1[C@@H](O)CNC1(C)CCC1 [I-154]",
    "Emax": "> 90%"
  },
  {
    "molecule": "CC(C)(C)NC[C@H](O)c1ccc(OC(F)F)c2[nH]ncc12 [I-102]",
    "Emax": "< 50%"
  },
  {
    "molecule": "Cc1ccnc2ccc([C@@H](O)CNC(C)(C)C)cc12 [I-72]",
    "Emax": "< 50%"
  },
  {
    "molecule": "CC(C)(C)NC[C@H](O)c1ccc(Cl)c2[nH]nc(F)c12 [I-189]",
    "Emax": "70 to 90%"
  },
  {
    "molecule": "CC1(NC[C@H](O)c2ccc(Cl)c3[nH]ncc23)CC1 [I-120]",
    "Emax": "70 to 90%"
  },
  {
    "molecule": "CC(C)(C)NC[C@H](O)c1cnc(N)s1 [I-86]",
    "Emax": "70 to 90%"
  },
  {
    "molecule": "C[C@@H](NC[C@H](O)c1ccc(F)c2[nH]ncc12)C(C)(C)C [I-16]",
    "Emax": "> 90%"
  },
  {
    "molecule": "CC(C)(NC[C@H](O)c1cccc2[nH]nc(F)c12)C1CC1 [I-20]",
    "Emax": "> 90%"
  },
  {
    "molecule": "CCC(C)(C)NC[C@H](O)c1cccc2[nH]nc(Cl)c12 [I-45]",
    "Emax": "70 to 90%"
  },
  {
    "molecule": "CC(C)C(C)(C)NC[C@H](O)c1cccc2[nH]ncc12 [I-29]",
    "Emax": "> 90%"
  },
  {
    "molecule": "Cc1ncccc1[C@@H](O)CNC1CCC1 [I-187]",
    "Emax": "70 to 90%"
  },
  {
    "molecule": "CC(C)[C@@H](C)NC[C@H](O)c1ccc(F)c2[nH]ncc12 [I-31]",
    "Emax": "> 90%"
  },
  {
    "molecule": "CC(C)(C)CNC[C@H](O)c1cc(C#N)cc2[nH]ncc12 [I-69]",
    "Emax": "70 to 90%"
  },
  {
    "molecule": "C[C@H](NC[C@H](O)c1ccc(F)c2[nH]ncc12)C(C)(C)C [I-14]",
    "Emax": "50 to 70%"
  },
  {
    "molecule": "COc1ccnc2ccc([C@@H](O)CNC(C)(C)C)cc12 [I-74]",
    "Emax": "< 50%"
  },
  {
    "molecule": "CC(C)(C)NC[C@@H](O)c1cncc2[nH]ncc12 [I-66]",
    "Emax": "> 90%"
  },
  {
    "molecule": "CC1(NC[C@H](O)c2cc(C#N)cc3[nH]ncc23)CCC1 [I-157]",
    "Emax": "> 90%"
  },
  {
    "molecule": "CC(C)(C)CNC[C@H](O)c1cc(F)cc2[nH]ncc12 [I-92]",
    "Emax": "> 90%"
  },
  {
    "molecule": "CC1(NC[C@H](O)c2cccc3[nH]cc(F)c23)CC1 [I-107]",
    "Emax": "> 90%"
  },
  {
    "molecule": "CC(C)(C)CNC[C@H](O)c1cccc2[nH]nc(F)c12 [I-90]",
    "Emax": "> 90%"
  },
  {
    "molecule": "Cc1ncccc1[C@@H](O)CNC1(C)CCC1 [I-177]",
    "Emax": "> 90%"
  },
  {
    "molecule": "CCC(C)(C)NC[C@H](O)c1cc(Cl)c(N)nc1C [I-171]",
    "Emax": "> 90%"
  },
  {
    "molecule": "CC(C)(C)NC[C@@H](O)c1ccc(N)nn1 [I-141]",
    "Emax": "> 90%"
  },
  {
    "molecule": "CC(C)(C)NC[C@H](O)c1cc(OC(F)F)cc2[nH]ncc12 [I-106]",
    "Emax": "50 to 70%"
  },
  {
    "molecule": "CCC(C)(C)NC[C@H](O)c1ccc(Cl)c2[nH]ncc12 [I-49]",
    "Emax": "70 to 90%"
  },
  {
    "molecule": "CC(C)(CO)NC[C@H](O)c1cccc2[nH]nc(F)c12 [I-132]",
    "Emax": "> 90%"
  },
  {
    "molecule": "O[C@@H](CNC1CC1)c1ccc(Cl)c2[nH]ncc12 [I-121]",
    "Emax": "70 to 90%"
  },
  {
    "molecule": "CCC(CC)NC[C@H](O)c1ccc(F)c2[nH]ncc12 [I-37]",
    "Emax": "70 to 90%"
  },
  {
    "molecule": "CCC(C)(CC)NC[C@H](O)c1cc(F)cc2[nH]ncc12 [I-26]",
    "Emax": "> 90%"
  },
  {
    "molecule": "Cc1n[nH]c2cccc([C@@H](O)CNC(C)(C)CO)c12 [I-173]",
    "Emax": "70 to 90%"
  },
  {
    "molecule": "CC(C)(C)C(C)(C)NC[C@H](O)c1cccc2[nH]ncc12 [I-7]",
    "Emax": "> 90%"
  },
  {
    "molecule": "CCC(CC)NC[C@H](O)c1cccc2[nH]nc(F)c12 [I-42]",
    "Emax": "70 to 90%"
  },
  {
    "molecule": "CC(C)(C)NC[C@H](O)c1cccc2[nH]nc(Cl)c12 [I-114]",
    "Emax": "> 90%"
  },
  {
    "molecule": "CC1(NC[C@H](O)c2ccc(Cl)c3[nH]ncc23)CCC1 [I-118]",
    "Emax": "70 to 90%"
  },
  {
    "molecule": "C[C@H](NC[C@H](O)c1ccc(Cl)c2[nH]ncc12)C(C)(C)C [I-3]",
    "Emax": "70 to 90%"
  },
  {
    "molecule": "Cc1c(Cl)[nH]c2cccc([C@@H](O)CNC(C)(C)C)c12 [I-115]",
    "Emax": "70 to 90%"
  },
  {
    "molecule": "C[C@@H](NC[C@H](O)c1cccc2[nH]ncc12)C(C)(C)C [I-9]",
    "Emax": "> 90%"
  },
  {
    "molecule": "Cn1ncc2c([C@@H](O)CNC(C)(C)C)cc(F)cc21 [I-57]",
    "Emax": "50 to 70%"
  },
  {
    "molecule": "O[C@@H](CNC1CCC1)c1cccc2[nH]ncc12 [I-127]",
    "Emax": "> 90%"
  },
  {
    "molecule": "CC(C)CNC[C@H](O)c1ccc2[nH]cc(F)c2c1 [I-124]",
    "Emax": "> 90%"
  }
]

Reference for the values: patent US20240270701A1
